test: qHTS assay to test for compound auto fluorescence at 535 nm (green) in HEK293 cell free culture (AID 720682); conditions: cell-free medium, green autofluorescence 485/535 nm; series mostly up to 91.3 µM
Calls of active or inactive are those of the source. Calls come from the whole dose curve; as a rule, active = well fitted curve in the direction sought with a large enough effect in the repeat runs; inconclusive = weak or mixed curves; inactive = flat fitted curve, though single readings scatter.
property-label: outcome

In the examples that follow, each entry is paired with its recorded outcome.
O=C(O)c1ccccc1C(c1ccc(O)cc1)c1ccc(O)cc1 | inactive
CCCCCCCCCCCCOCCO | inactive
CC[C@H](C)C(=O)O[C@H]1C[C@@H](C)C=C2C=C[C@H](C)[C@H](CC[C@@H]3C[C@@H](O)CC(=O)O3)[C@H]21 | inactive
O=C(O)CC(C(=O)O)C(CC(=O)O)C(=O)O (configuration not stated) | inactive

I am curious: what outcome value has been reported for CCCCCC/C(C=O)=C\c1ccccc1 ?
inactive

I am curious: what outcome value has been reported for OCCOCCOCCO ?
inactive

I am curious: what outcome value has been reported for c1c[nH]cn1 ?
inactive

I am curious: what outcome value has been reported for CC(=O)CC(=O)Nc1ccccc1 ?
inactive

I am curious: what outcome value has been reported for O=C(O)c1cc(=O)c2c(OCC(O)COc3cccc4oc(C(=O)O)cc(=O)c34)cccc2o1 ?
inactive

I am curious: what outcome value has been reported for COCCCOc1ccnc(CS(=O)c2nc3ccccc3[nH]2)c1C (configuration not stated) ?
inactive

I am curious: what outcome value has been reported for CC(C)(N)CO ?
inactive

I am curious: what outcome value has been reported for CCCCCCCCCCCCCCO ?
inactive

I am curious: what outcome value has been reported for ON=C1CCCCC1 ?
inactive

I am curious: what outcome value has been reported for CN(C)CCC(c1ccccc1)c1ccccn1 (configuration not stated) ?
inactive

I am curious: what outcome value has been reported for O=C=NCCCCCCN=C=O ?
inactive

I am curious: what outcome value has been reported for CCCCCCCCC/C=C/CC1CC(=O)OC1=O (configuration not stated) ?
inactive

I am curious: what outcome value has been reported for Cc1occc(=O)c1O ?
inactive

###

biological target: Estrogen receptor (Homo sapiens); test: qHTS assay to identify small molecule agonists of the estrogen receptor alpha (ER-alpha) signaling pathway using the BG1 cell line (AID 743079); conditions: BG1Luc4E2 cells, ERE-luciferase agonist, 22 h; series mostly up to 70.3 µM; note: nearly all actives have a fitted effect of over 20% in size
Results filed as inconclusive are left out. Calls of active or inactive are those of the source. Calls follow the shape of the dose curve; as a rule, active = well fitted activation curve with a large enough effect in the repeat runs; inconclusive = weak or mixed curves, or effect the other way; inactive = no such curve, though single readings can be large or run the other way.
property-label: outcome

In the examples that follow, each entry is paired with its recorded outcome.
OCc1cccnc1 | inactive
c1ccc2c(c1)ccc1ccccc12 | inactive
CCCCN(CCCC)CCCC | inactive
O=S1(=O)CC=CC1 | inactive

I am curious: what outcome value has been reported for O=C(O)c1cc(=O)c2c(OCC(O)COc3cccc4oc(C(=O)O)cc(=O)c34)cccc2o1 ?
inactive

I am curious: what outcome value has been reported for c1ccc2scnc2c1 ?
inactive

I am curious: what outcome value has been reported for O=C(O)c1ccc2c(c1)C(=O)OC2=O ?
inactive

I am curious: what outcome value has been reported for CCCCCCOCCO ?
inactive

I am curious: what outcome value has been reported for OC[C@H]1O[C@@](CO)(O[C@H]2O[C@H](CO)[C@@H](O)[C@H](O)[C@H]2O)[C@@H](O)[C@@H]1O ?
inactive

###

test: qHTS assay to identify small molecule antagonists of the estrogen receptor alpha (ER-alpha) signaling pathway using the BG1 cell line in the presence of 0.1 nM 17-beta-estradiol - cell viability counter screen (AID 1259241); conditions: VM7Luc4E2 (BG1) viability, CellTiter-Fluor protease, 22 h, 0.1 nM estradiol agonist added; series mostly up to 92.4 µM; note: nearly all actives have a fitted effect of over 40% in size
Inconclusive results are not listed. The source made the active and inactive calls. Calls follow the shape of the dose curve; as a rule, active = well fitted cell-killing curve with a large enough effect in the repeat runs; inconclusive = weak or mixed curves, or effect the other way; inactive = flat fitted curve, though single readings scatter.
Use one of these outcomes when replying: active, inactive

Name the outcome recorded for Nc1cc([N+](=O)[O-])ccc1O in the assay.
active

Name the outcome recorded for Cc1ccc(S(N)(=O)=O)cc1 in the assay.
inactive

Name the outcome recorded for CC(C)CC(=O)CC(C)C in the assay.
inactive

Each recorded value in this set is attributed to PubChem BioAssay (Tox21).
